Experimental Target: T1, SARS-CoV-2 receptor binding domain (RBD), wild type, His-tagged (SARS-CoV-2, UniProt P0DTC2 319-541)
T1 construct: domain: RBD; also called His-tagged RBD; BEI NR52309
Test Name: BLI competition on His-tagged RBD, after 1st Ab 52
Measurement Name: RBD binding of 2nd Ab after 1st Ab (heat map)

{"Binder": "mAb 52 (antibody, V domains shown, also called IgG 52; Antibody 52) VH: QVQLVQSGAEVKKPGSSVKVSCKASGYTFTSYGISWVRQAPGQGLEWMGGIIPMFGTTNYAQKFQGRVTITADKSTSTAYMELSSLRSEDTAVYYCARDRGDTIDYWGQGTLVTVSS VL: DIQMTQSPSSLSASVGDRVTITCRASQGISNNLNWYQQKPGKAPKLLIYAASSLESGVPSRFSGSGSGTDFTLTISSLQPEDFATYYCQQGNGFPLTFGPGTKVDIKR", "Recorded Result": 0.4}
